Origin of values: ChEMBL document CHEMBL3608269

# Test system: Staphylococcus aureus
# assay: Potentiation of oxacillin-mediated antibacterial activity against methicillin-resistant Staphylococcus aureus ATCC 43300 at 32 ug/ml after 20 to 24 hrs by CLSI method
# Assay type: functional
Examples of compounds with documented MIC follow.

Recorded results for 4 compounds are shown here.
{"columns": ["smiles code", "MIC"],
 "data": [
  ["CCCCCCCCO", "> 32 µg/mL"],
  ["CCCCCCCCCCCCCCO[C@@H]1O[C@H](CO)[C@@H](O)[C@H](O)[C@H]1O", "> 32 µg/mL"],
  ["CCCCCCCCCCCCCCO", "> 32 µg/mL"],
  ["CCCCCCCCCCCCCCCCO[C@@H]1O[C@H](CO)[C@@H](O)[C@H](O)[C@H]1O", "> 32 µg/mL"]
]}

Consider now this further compound.
Q: For `CCCCCCCCCCCCOCc1cn([C@@H]2O[C@H](CO)[C@@H](O)[C@H](O)[C@@H]2O)nn1` , what is its reported MIC?
Ans: 4 µg/mL

---

A collection of compounds and their measured MIC
# System: Staphylococcus aureus
# assay: Potentiation of oxacillin-mediated antibacterial activity against methicillin-resistant Staphylococcus aureus ATCC 43300 at 32 ug/ml after 20 to 24 hrs by CLSI method
# Type: functional
Give the quantity in µg/mL, number only.

Reference set, count: 3
{"columns": ["smiles code", "test readout", "value unit", "recorded number"],
 "data": [
  ["CCCCCCCCCCCCCCOCc1cn([C@@H]2O[C@H](CO)[C@@H](O)[C@H](O)[C@H]2O)nn1", "MIC", "µg/mL", 4],
  ["CCCCCCCCCCCCCCOCc1cn([C@@H]2O[C@H](CO)[C@H](O)[C@H](O)[C@H]2O)nn1", "MIC", "µg/mL", 8],
  ["CCCCCCCCCCCCOCc1cn([C@@H]2O[C@H](CO)[C@@H](O)[C@H](O)[C@H]2O)nn1", "MIC", "µg/mL", 1]
]}

Q: I would be grateful if you could share the reported MIC for `CCCCCCCCCCCCCCCCOCc1cn([C@@H]2O[C@H](CO)[C@H](O)[C@H](O)[C@H]2O)nn1` .
Ans: 16

---

MIC values, listed per item
# Tested on: Staphylococcus aureus
# assay: Potentiation of oxacillin-mediated antibacterial activity against methicillin-resistant Staphylococcus aureus ATCC 43300 at 32 ug/ml after 20 to 24 hrs by CLSI method
# Format: functional

Previously resolved entries follow.
{"columns": ["smiles code", "MIC"],
 "data": [
  ["CCCCCCCCCCO", "> 32 µg/mL"],
  ["CCCCCCCCCCCCO", "> 32 µg/mL"],
  ["CCCCCCCCCCCCCCCCCCO", "> 32 µg/mL"],
  ["CCCCCCCCCCCCCCCCO", "> 32 µg/mL"]
]}

Now look at this one.
Q: Which MIC is listed for `CCCCCCO` ?
Ans: > 32 µg/mL
